# ASSAY: small molecules captured by biotinylated probe aFGF2 – biochemical, small-molecule microarray, fluorescence 635/667, stem cell growth factor project, primary screen (AID 1067);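 note: measures binding of biotinylated aFGF2 protein to printed compounds on slides; z-score merges feature fluorescence and signal-to-noise across triplicate slides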
# SETUP CONDITIONS: higher = more signal
Classify by measured composite z-score: yes (1) if it is equal to or exceeds -0.1, no (0) if it is smaller.

>>> class_assignment("COC(=O)C/C=C/C[C@]1(O)C(=O)N(C)c2ccccc21")
"no (0)"

Given the entry COc1ccc(C#Cc2ccc3c(c2)[C@]2(C(=O)N3)[C@H](C(=O)O)[C@H]3C(=O)O[C@H](c4ccccc4)[C@H](c4ccccc4)N3[C@@H]2c2ccc(O)cc2)cc1 , answer whether its composite z-score meets or surpasses -0.1.
yes (1)

Given the entry COC(=O)C1=CC(CCCO)=CC(c2ccc(CN3CCCC3)cc2)N(Cc2cccc(OC(F)(F)F)c2)C=C1C(=O)OC (stereo not given) , answer whether its composite z-score meets or surpasses -0.1.
yes (1)

Given the entry OCCCC1=CC(c2ccc(CN3CCCC3)cc2)N(Cc2cc3c(cc2Br)OCO3)CC1 (stereo not given) , answer whether its composite z-score meets or surpasses -0.1.
no (0)

Given the entry COC(=O)C(CC#Cc1ccc2c(c1)[C@]1(C(=O)N2)[C@H](c2ccc(O)cc2)N2[C@H](c3ccccc3)[C@H](c3ccccc3)OC(=O)[C@H]2[C@@H]1C(=O)NC[C@H](O)c1ccccc1)C(=O)OC , answer whether its composite z-score meets or surpasses -0.1.
yes (1)

Given the entry CCCCC(=C=CC[C@H](O)c1ccc(OCCO)cc1)CCO , answer whether its composite z-score meets or surpasses -0.1.
no (0)

Given the entry [N-]=[N+]=Nc1ccccc1C[C@]1(C(=O)NCC(O)CO)COC(c2ccc(OCCCO)cc2)=N1 (stereo not given in full) , answer whether its composite z-score meets or surpasses -0.1.
yes (1)

Given the entry COc1ccc(C#Cc2ccc3c(c2)[C@]2(C(=O)N3)[C@H](c3ccc(O)cc3)N3[C@H](c4ccccc4)[C@H](c4ccccc4)OC(=O)[C@H]3[C@@H]2C(=O)Nc2nc3ccccc3s2)cc1 , answer whether its composite z-score meets or surpasses -0.1.
yes (1)
